- target-under-test: T1, human mutCALR on BaF3 cells stably expressing human MPL and human mutCALR (MPL-mutCALR cells) (human)
- T1 construct: also called mutant calreticulin
- T1 chain: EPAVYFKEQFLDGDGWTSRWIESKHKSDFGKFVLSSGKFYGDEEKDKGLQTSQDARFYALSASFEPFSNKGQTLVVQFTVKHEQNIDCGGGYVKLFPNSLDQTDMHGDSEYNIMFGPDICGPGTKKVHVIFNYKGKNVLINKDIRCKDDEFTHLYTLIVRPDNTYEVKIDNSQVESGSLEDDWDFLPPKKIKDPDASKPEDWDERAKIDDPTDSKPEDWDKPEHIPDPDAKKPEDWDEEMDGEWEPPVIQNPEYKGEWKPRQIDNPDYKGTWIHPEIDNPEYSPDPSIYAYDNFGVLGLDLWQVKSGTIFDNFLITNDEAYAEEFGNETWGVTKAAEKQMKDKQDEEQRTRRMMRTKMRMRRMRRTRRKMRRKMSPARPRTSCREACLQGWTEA
- assay-name: flow cytometry, BaF3 MPL-mutCALR cells
reported-property: MPL-mutCALR AUC
Give your answer as a number; write no unit.

Enquiry: Which MPL-mutCALR AUC value is on record for anti-mutCALR antibody clone 4 (antibody, human IgG1, lambda, V domains shown, human IgG1) VH: EVQLVQSGAEVKKPGASVKVSCKVSGYTLTELSMQWVRQAPGKGLEWMGGFDPDDGETMYAEKFQGRLTVTEDTSTDTVYMELRSLTSEDTALYFCATSPGYDFFDYWGQGTLVTVSS VL: SYVLTQPPSVSVAPGQTARITCGGNNIGSKSVHWYQQKPGQAPVLVVYDDSDRPSGIPERFSGSNSGNTATLTINRVEAGDEADYYCQVWDSSNDLLIFGGGTKLTVLG ?
Return: 74000

Enquiry: Which MPL-mutCALR AUC value is on record for anti-mutCALR antibody clone 35 (antibody, human IgG1, lambda, V domains shown, human IgG1) VH: QVQLVQSGAEVKKPGATVKISCKVSGYSFTDYFIHWVQQAPGKGLAWVGLVDPEDGETIYAERFQGRVTITADTSTDTAYMELSSLRSEDTAVYYCATPGGILTDPDAFDIWGQGTMVTVSS VL: QSALTQPASVSGSPGQSITISCTGTSSDVGGYNYVSWYQQHPGKAPKLMIYEVSNRPSGVSNRFSGSKSGNTASLTISGLQAEDEADYYCSSYTSSSTPYVFGTGTKVTVLG ?
Return: 62100

Enquiry: Which MPL-mutCALR AUC value is on record for anti-mutCALR antibody clone 30 (antibody, human IgG1, lambda, V domains shown, human IgG1) VH: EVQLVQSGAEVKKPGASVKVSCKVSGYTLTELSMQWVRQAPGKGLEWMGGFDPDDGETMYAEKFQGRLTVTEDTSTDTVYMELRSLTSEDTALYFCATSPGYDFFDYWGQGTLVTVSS VL: SYVLTQPPSVSVAPGKTATITCGGNNIGTKSVHWYQQKPGQAPVLVVYDDSDRPSGIPERFSGSNSGNTATLTINRVEAGDEADYYCQVWDSSNDLLIFGGGTKLTVLG ?
Return: 63800

Enquiry: Which MPL-mutCALR AUC value is on record for anti-mutCALR antibody clone 16 (antibody, human IgG1, lambda, V domains shown, human IgG1) VH: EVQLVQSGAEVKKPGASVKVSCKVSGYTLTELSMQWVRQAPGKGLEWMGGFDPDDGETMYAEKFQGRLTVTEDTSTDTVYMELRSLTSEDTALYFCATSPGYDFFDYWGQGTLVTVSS VL: SYVLTQPPSVSVAPGKTARITCGGNNTGSKSVHWYQQKPGQAPVLVVYDDSDRPSGIPERFSGSNSGNTATLTINRVEAGDEADYYCQVWDSSNDLLIFGGGTKLTVLG ?
Return: 63200

Enquiry: Which MPL-mutCALR AUC value is on record for anti-mutCALR antibody clone 65 (antibody, human IgG1, lambda, N297A, V domains shown) VH: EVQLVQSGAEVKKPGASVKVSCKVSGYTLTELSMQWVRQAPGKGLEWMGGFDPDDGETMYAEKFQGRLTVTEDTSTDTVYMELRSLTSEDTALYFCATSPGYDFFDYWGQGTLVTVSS VL: SYVLTQPPSVSVAPGKTARITCTGTSSDVGGYNYVSWYQQKPGQAPVLVVYEVSNRPSGIPERFSGSNSGNTATLTISRVEAGDEADYYCQVWDSSNDLLIFGGGTKLTVLG ?
Return: 81200

Enquiry: Which MPL-mutCALR AUC value is on record for anti-mutCALR antibody clone 26 (antibody, human IgG1, lambda, V domains shown, human IgG1) VH: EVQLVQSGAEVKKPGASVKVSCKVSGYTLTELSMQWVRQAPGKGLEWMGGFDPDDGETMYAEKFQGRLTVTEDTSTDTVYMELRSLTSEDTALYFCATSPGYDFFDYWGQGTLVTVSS VL: SYVLTQPPSVSVAPGQTARITCGGNNIGSKSVHWYQQKPGQAPVLVVYDDSDRPSGIPERFSGSNSGNTATLTISRVEAGDEADYYCQVWDSSIDHLIFGGGTKVTVLG ?
Return: 41500

Enquiry: Which MPL-mutCALR AUC value is on record for anti-mutCALR antibody clone 51 (antibody, human IgG1, lambda, V domains shown, human IgG1) VH: EVQLVQSGAEVKKPGSSVKVSCKASGGTFSSYAISWVRQAPGQGLEWMGGIIPIFGTANYAQKFQGRVTITADESTSTAYMELSSLRSEDTAVYYCASSPLRGSGWYWHYYYGMDVWGQGTTVTVSS VL: SYELTQPPSVSVAPGKTARITCGGNKIGTKSVHWYQQKPGQAPVLVIYQDSKRPSGIPERFSGSNSGNTATLTISGTQAMDEADYYCQAWGSSTVVFGGGTKLTVLG ?
Return: 37300

Enquiry: Which MPL-mutCALR AUC value is on record for anti-mutCALR antibody clone 177 (antibody, human IgG1, lambda, N297A, V domains shown) VH: EVQLVQSGAEVKKPGASVKVSCKVSGYTLTELSMQWVRQAPGKGLEWMGGFDPDSGETMYAEKFQGRLTVTEDTSTDTVYMELSSLRSEDTAVYFCATSPGYDFFDYWGQGTLVTVSS VL: SYVLTQPPSVSVAPGQTARITCGGSDIGDEIVHWYQQKPGQAPVLVVYDDSDRPSGIPERFSGSNSGNTATLTISRAQAGDEADYYCQVWDSSSDHLIFGGGTKLTVLG ?
Return: 52900

Enquiry: Which MPL-mutCALR AUC value is on record for anti-mutCALR antibody clone 62 (antibody, human IgG1, lambda, N297A, V domains shown) VH: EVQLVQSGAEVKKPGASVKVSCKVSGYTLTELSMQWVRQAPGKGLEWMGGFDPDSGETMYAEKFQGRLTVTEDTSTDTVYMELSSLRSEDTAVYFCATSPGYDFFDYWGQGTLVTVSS VL: QSALTQPASVSGSPGQSITISCTGTSSDVGGYNYVSWYQQHPGKAPKLMIYEVSNRPSGVSNRFSGSNSGNTATLTINRVEAGDEADYYCQVWDSSNDLLIFGGGTKLTVLG ?
Return: 58800

Enquiry: Which MPL-mutCALR AUC value is on record for anti-mutCALR antibody clone 63 (antibody, human IgG1, lambda, N297A, V domains shown) VH: EVQLVQSGAEVKKPGASVKVSCKVSGYTLTELSMQWVRQAPGKGLEWMGGFDPDEGETMYAEKFQGRLTVTEDTSTDTVYMELSSLRSEDTAVYFCATSPGYDFFDYWGQGTLVTVSS VL: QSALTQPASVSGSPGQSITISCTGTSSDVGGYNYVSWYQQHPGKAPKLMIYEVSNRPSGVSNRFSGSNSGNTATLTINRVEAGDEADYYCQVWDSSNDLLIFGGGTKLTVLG ?
Return: 69100
